Taken from PubChem BioAssay AID463173.

# Tested on: DeltatarO mutant
# experimentDescription: S. aureus survival, RN4220 and DeltatarO strains – OD600, teichoic acid synthesis inhibitors, primary screen (AID 463173)
# appliedConditions: S. aureus RN4220 wild type/DeltatarO growth, OD600, 18 h, hits give low values, screened at 18.75 µg/mL (by protocol)
In all, about 52,000 compounds went through this assay and about 4,300 (8.3%) were called active. Many of the other results were omitted from the sample, so actives are more common in it than they were.
Below, each entry is listed with its recorded survival.

compound	testedOn	survival (%)
Cc1ccc(-c2ccc(=O)n(C(C)C(=O)Nc3ccccc3Cl)n2)cc1C (stereo not given)	DeltatarO mutant	66
Cc1ccc(-c2ccc(=O)n(CC(=O)Nc3ccc(C)cc3Cl)n2)cc1	DeltatarO mutant	50
CC(=O)c1ccc(NC(=O)CSc2ccc3nc(-c4ccccc4)cn3n2)cc1	DeltatarO mutant	89
CC(=O)c1ccc(NC(=O)C(C)n2nc(-c3ccccc3)ccc2=O)cc1 (stereo not given)	DeltatarO mutant	32
Cc1ccccc1OC(=O)c1nc(SCc2ccccc2F)ncc1Cl	DeltatarO mutant	107

###

# System: DeltatarO mutant
# experimentDescription: S. aureus survival, RN4220 and DeltatarO strains – OD600, teichoic acid synthesis inhibitors, primary screen (AID 463173)
# appliedConditions: S. aureus RN4220 wild type/DeltatarO growth, OD600, 18 h, screened at 18.75 µg/mL (by protocol)
Out of some 52,000 compounds screened, about 4,300 (8.3%) were called active. No stated cut-off is given here; in the data, active means survival mostly below about 52% (no sharp cut-off); inactive means mostly above about 56%. The sample as a whole holds a higher share of actives than the screen did.
Outcome codes: yes (active), no (inactive)

structureAsSmiles	categoryLabel
COc1ccc(-n2c3c(cc(-c4nc(-c5ccc(Cl)cc5)cs4)c2=O)C(=O)CC(C)(C)C3)cc1	no
Cc1ccc(-c2cc3c(n2-c2ccc(C)cc2)CC(C)(C)CC3=O)cc1	no
COc1ccc(C)cc1-n1c(-c2ccc(Cl)cc2)cc2c1CC(C)(C)CC2=O	no
COc1ccc(-n2c(-c3ccc(C)cc3)cc3c2CC(C)(C)CC3=O)cc1Cl	no
COc1ccc(-n2c(-c3ccc(Cl)cc3)cc3c2CC(C)(C)CC3=O)c(OC)c1	yes

###

# Test system: DeltatarO mutant
# experimentDescription: S. aureus survival, RN4220 and DeltatarO strains – OD600, teichoic acid synthesis inhibitors, primary screen (AID 463173)
# appliedConditions: S. aureus RN4220 wild type/DeltatarO growth, OD600, 18 h, hits give low values, screened at 18.75 µg/mL (by protocol)
The whole screen tested about 52,000 compounds, of which about 4,300 (8.3%) were called active. The sample as a whole holds a higher share of actives than the screen did.
Values of survival strictly less than 60% map to YES, and values of at least 60% map to NO.

compound	categoryLabel
COc1ccc(C(=O)Nc2ccccc2-c2nc3ccccc3s2)cc1OC	YES
CCCCCCC1CC=C(C(=O)O)CC1 (centres undefined)	NO
Cc1ccc(-n2nc(CO)c(C(=O)NC(C)CCCc3ccccc3)n2)cc1C (centres undefined)	NO
CC(C)c1ccc(C2Sc3ccccc3NC3=C2C(=O)c2ccccc23)cc1 (centres undefined)	NO
COc1cccc(C(=O)Nc2ccc(-c3nc4ccccc4s3)cc2Cl)c1	NO
O=C1C2=C(Nc3ccccc3SC2c2ccc(Cl)c(Cl)c2)c2ccccc21 (centres undefined)	YES
CC(NC(=O)C1CCN(C(=O)N2CCOc3ccc(Cl)cc32)CC1)c1ccccc1 (centres undefined)	YES
O=C1C2=C(Nc3ccccc3SC2c2ccccc2C(F)(F)F)c2ccccc21 (centres undefined)	YES
CCOCCCN(Cc1ccco1)S(=O)(=O)c1cc2c(cc1C)NC(=O)CO2	NO
Cc1nc2c3ccccc3nc(NNC(=O)CCC(=O)O)n2n1	NO
COc1ccc(C(=O)Nc2cc(C)c(O)c(-c3nc4ccccc4s3)c2)cc1OC	YES
CCOc1cc(C2Sc3ccccc3NC3=C2C(=O)c2ccccc23)ccc1O (centres undefined)	YES
COc1cccc(C(=O)Nc2ccccc2-c2nc3ccccc3s2)c1	YES
CCOc1ccc(-n2nc(CO)c(C(=O)NCc3cccs3)n2)cc1	YES
Cc1nc(-c2ccccc2)sc1-c1ccc(SCC(=O)Nc2ccc(F)cc2F)nn1	YES
Cc1ccc(-n2nc(CO)c(C(=O)NC(C)c3ccccc3)n2)cc1C (centres undefined)	YES
Cc1ccc(-n2nc(CO)c(C(=O)NCCc3ccccc3)n2)cc1C	NO
Cc1ccc(OC(=O)c2cccnc2)cc1	NO
COc1ccc2c(C)c(CCC(=O)NCc3ccccc3Cl)c(=O)oc2c1C	NO
Cc1ccc(C(=O)Nc2ccc(-c3nc4ccccc4s3)c(O)c2)c(C)c1	NO
COc1cccc(Nc2nc3cc(Cl)c(Cl)cc3nc2-n2nc(C)cc2C)c1	NO
N#Cc1cc2cc3c(cc2nc1SCC(=O)N1CCN(c2ccc(F)cc2)CC1)OCCO3	NO
CCCCCCC1CCC(C(=O)NC(C(=O)O)C(C)C)CC1 (centres undefined)	YES
CCc1ccc(S(=O)(=O)Nc2ccc(-c3ccc(N4CCCCCC4)nn3)cc2)cc1	NO
COc1ccc(Br)cc1CNC(=O)c1ccc2c(c1)nc1n2CCC(C)C1 (centres undefined)	NO
Cc1ccc(-n2nc(CO)c(C(=O)NCc3cccs3)n2)cc1C	YES
CCCCC1CCC(CCCC(C)CCC(=O)O)CC1 (centres undefined)	YES
O=C(Nc1ccc(-c2nc3ccccc3s2)c(O)c1)c1ccc(Br)cc1	NO
Cc1nc2ccc(NC(=O)C3CC3)cc2c(=O)n1Cc1ccc(F)cc1	NO
COc1cc(OC)cc(C(=O)Nc2ccc(-c3nc4ccccc4s3)c(C)c2)c1	NO
O=C1C2=C(Nc3ccccc3SC2c2ccc(C(F)(F)F)cc2)c2ccccc21 (centres undefined)	YES
CC(C)(C)c1ccc(C2Sc3ccccc3NC3=C2C(=O)c2ccccc23)cc1 (centres undefined)	NO
O=C(Nc1ccccc1-c1nc2ccccc2s1)c1ccc(F)cc1	NO
COc1cc(OC)cc(C(=O)Nc2ccccc2-c2nc3ccccc3s2)c1	YES
O=C1C2=C(Nc3ccccc3SC2c2c(F)cccc2Cl)c2ccccc21 (centres undefined)	NO
CCOC(=O)N1CCC(NC(=O)c2ccc3c(c2)N(Cc2ccc(F)cc2)C(=O)c2ccccc2S3=O)CC1 (centres undefined)	YES
Cc1ccc(-n2nc(CO)c(C(=O)NCc3cccs3)n2)cc1	NO
Cc1cccc(N2CCN(S(=O)(=O)c3ccc4c(c3)CC(=O)N4C)CC2)c1C	NO
Nc1ccc(CN2C(=O)c3ccccc3C2=O)cc1	NO
Cc1ccc(N2CCN(S(=O)(=O)c3cc(Br)cc4c3N(C(=O)C3CC3)CC4)CC2C)cc1 (centres undefined)	NO
O=C(/C=N/O)NCCN1CCCCC1	NO
CC1(C)c2ssc(=S)c2-c2ccccc2N1C(=O)CSC#N	NO
COc1ccc(OC)c(C2=NS(=O)(=O)N(C)C(C(=O)Nc3ccc(F)cc3F)=C2)c1	NO
